test system: human lung cancer strain NCI-H441; format: cell-based
pIC50: −log10 of the molar value.
Rule: yes (1) for pIC50 not less than 8, no (0) for anything less.

Take a look at these entries with their results.
1) CCC[C@H]1C(=O)N[C@@H]([C@@H](C)CC)C(=O)N(C)CC(=O)N(C)[C@H]2C/C=C\CCN(C2=O)[C@@H](Cc2ccc(C)cc2)C(=O)N(C)CC(=O)N[C@@H](CCc2ccc(C(F)(F)F)c(OC)c2)C(=O)N2CC3(CC3)C[C@H]2C(=O)NC2(CC(C)(C)C2)C(=O)N(C)[C@@H]([C@@H](C)CC)C(=O)N(C)[C@H](C(=O)N(C)C)CC(=O)N1C | no (0)
2) CCO[C@@H]1C[C@H]2C(=O)NC3(CCC3)C(=O)N(C)[C@@H](C3CCCC3)C(=O)N(C)[C@H](C(=O)N(C)CCOC)CC(=O)N(C)[C@@H](CC(C)C)C(=O)N[C@@H]([C@@H](C)CC)C(=O)N(C)CC(=O)N(C)[C@H]3C/C=C\CCN(C3=O)[C@@H](Cc3ccc(C(F)(F)F)cc3)C(=O)N(C)CC(=O)N[C@@H](CCc3ccc4sccc4c3)C(=O)N2C1 | no (0)
3) CC[C@H](C)[C@@H]1NC(=O)[C@H](CC(C)C)N(C)C(=O)C[C@@H](C(=O)N(CC)CC)N(C)C(=O)[C@H](C2CCCC2)N(C)C(=O)C2(CCC2)NC(=O)[C@@H]2C[C@H](C)CN2C(=O)[C@H](CCc2ccc(C(F)(F)F)c(OC)c2)NC(=O)CN(C)C(=O)[C@H](Cc2ccc(C)cc2)N2CC/C=C\C[C@@H](C2=O)N(C)C(=O)CN(C)C1=O | no (0)
4) CCC[C@H]1C(=O)N[C@@H]([C@@H](C)CC)C(=O)N(C)CC(=O)N(C)[C@H]2C/C=C\CCN(C2=O)[C@@H](Cc2ccc(C(F)(F)F)cc2)C(=O)N(C)CC(=O)N[C@@H](CCc2cc(F)c(C(F)(F)F)c(F)c2)C(=O)N2C[C@H](OCC)C[C@H]2C(=O)NC2(CC(C)(C)C2)C(=O)N(C)[C@@H](C(CC)CC)C(=O)N(C)[C@H](C(=O)N(C)C)CC(=O)N1C | yes (1)

Attention now turns to another entry.
Ask: Would you say CC[C@H](C)[C@@H]1NC(=O)[C@H](CC(C)C)N(C)C(=O)C[C@@H](C(=O)N2CCCCC2)N(C)C(=O)[C@H](C2CCCC2)N(C)C(=O)C2(CCCC2)NC(=O)[C@@H]2CCCN2C(=O)[C@H](CCc2cc(F)c(C(F)(F)F)c(F)c2)NC(=O)CN(C)C(=O)[C@H](Cc2ccc(C(F)(F)F)cc2)N2CCCCC[C@@H](C2=O)N(C)C(=O)CN(C)C1=O shows pIC50 at minimum 8?
Reply: no (0)
